Listed next: entries and their corresponding viability, T/C.
System: 885512-296-R-J2-PDC complex spheroid growth, % test/control;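 note: spheroids exposed to compounds for seven days; 100% = DMSO vehicle control wells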
Test: Anticancer human tumor 885512-296-R-J2-PDC patient-derived breast carcinoma cell line growth inhibition [Asc]
Conditions: second compound 1 µM; first compound 0.1 µM; active compounds read low
Text: Multicellular complex tumor spheroid response to apoptosis pathway targeting inhibitors Alrizomadlin, Pelcitoclax, and Dasminapant in combination with a variety of drugs and investigational agents in selected tumor cell lines […] Compounds. […] If the clinical Cmax for an agent had not been determined, the highest concentration tested was 10 microM. […]

Recorded viability, T/C, per entry:
1. COc1c(OCCCN2CCOCC2)ccc2c3n(c(=NC(=O)c4cnc(N)nc4)nc12)CCN3 + CNC(C)C(=O)NC1CN(S(=O)(=O)c2cccc(S(=O)(=O)N3CCC4CCC(C(=O)NC(c5ccccc5)c5ccccc5)N4C(=O)C(NC(=O)C(C)NC)C3)c2)CCC2CCC(C(=O)NC(c3ccccc3)c3ccccc3)N2C1=O ... 79%
2. O=C(c1ccc(F)c(F)c1Nc1ccc(I)cc1F)N1CC(O)([C@@H]2CCCCN2)C1 + CNC(C)C(=O)NC1CN(S(=O)(=O)c2cccc(S(=O)(=O)N3CCC4CCC(C(=O)NC(c5ccccc5)c5ccccc5)N4C(=O)C(NC(=O)C(C)NC)C3)c2)CCC2CCC(C(=O)NC(c3ccccc3)c3ccccc3)N2C1=O ... 60.9%
3. C#Cc1c(F)ccc2cc(O)cc(-c3ncc4c(N5CC6CCC(C5)N6)nc(OCC56CCCN5CC(F)C6)nc4c3F)c12 (configuration not stated) + CNC(C)C(=O)NC1CN(S(=O)(=O)c2cccc(S(=O)(=O)N3CCC4CCC(C(=O)NC(c5ccccc5)c5ccccc5)N4C(=O)C(NC(=O)C(C)NC)C3)c2)CCC2CCC(C(=O)NC(c3ccccc3)c3ccccc3)N2C1=O ... 108%
4. O=C(c1cc(Cc2n[nH]c(=O)c3ccccc23)ccc1F)N1CCN(C(=O)C2CC2)CC1 + Cc1c(S(C)(=O)=O)c(-c2cc(F)cc(N3CCN(c4ccc(NS(=O)(=O)c5ccc(NC(CCN6CCC(C(=O)OCCCP(=O)(O)O)CC6)CSc6ccccc6)c(S(=O)(=O)C(F)(F)F)c5)cc4)CC3)c2)c(-c2ccc(Cl)cc2)n1C(C)C ... 98.8%
5. Cn1ncnc1[C@H]1c2n[nH]c(=O)c3cc(F)cc(c23)N[C@@H]1c1ccc(F)cc1 + CNC(C)C(=O)NC1CN(S(=O)(=O)c2cccc(S(=O)(=O)N3CCC4CCC(C(=O)NC(c5ccccc5)c5ccccc5)N4C(=O)C(NC(=O)C(C)NC)C3)c2)CCC2CCC(C(=O)NC(c3ccccc3)c3ccccc3)N2C1=O ... 26.2%
6. C=CC(=O)N1CCN(c2nc(=O)n(-c3c(C)ccnc3C(C)C)c3nc(-c4c(O)cccc4F)c(F)cc23)C(C)C1 (configuration not stated) + Cc1c(S(C)(=O)=O)c(-c2cc(F)cc(N3CCN(c4ccc(NS(=O)(=O)c5ccc(NC(CCN6CCC(C(=O)OCCCP(=O)(O)O)CC6)CSc6ccccc6)c(S(=O)(=O)C(F)(F)F)c5)cc4)CC3)c2)c(-c2ccc(Cl)cc2)n1C(C)C ... 73.5%

Please find the next compound below.
[in] Give viability, T/C only, for CCN1CCN(Cc2ccc(Nc3ncc(F)c(-c4cc(F)c5nc(C)n(C(C)C)c5c4)n3)nc2)CC1 + CNC(C)C(=O)NC1CN(S(=O)(=O)c2cccc(S(=O)(=O)N3CCC4CCC(C(=O)NC(c5ccccc5)c5ccccc5)N4C(=O)C(NC(=O)C(C)NC)C3)c2)CCC2CCC(C(=O)NC(c3ccccc3)c3ccccc3)N2C1=O , using 885512-296-R-J2-PDC complex spheroid growth, % test/control data.
[out] 87.5%
